Reported VLB/OV3 by item:
System: SKVLB
Test: Microculture tetrazolium assay
Format: cell-based
Conditions: IC50 ratio SKVLB/SKOV3

Request: Entry CC(=O)C1Cc2c(O)c3c(c(O)c2C(O)O1)C(=O)c1ccccc1C3=O (centres unmarked) [BCH-1116] : reported VLB/OV3 = ?
Response: 0.82

Request: Name the recorded VLB/OV3 for CO[C@H]1S[C@H](C(C)=O)CC2=C1C(=O)c1cc3ccccc3c(O)c1C2=O (relative stereo) [BCH-1164] .
Response: 0.98

Request: VLB/OV3 lookup needed for CC(=O)[C@H]1CC2=C(C(=O)c3cc4ccccc4c(O)c3C2=O)[C@H](O[C@H]2C[C@H](NC(=O)C(F)(F)F)[C@H](I)[C@H](C)O2)O1 [BCH-1618] , thanks.
Response: .098

Request: So what does the record say about VLB/OV3 for C=CC[C@H]1Cc2c(O)c3c(c(O)c2[C@H](O[C@H]2C[C@H](NC(=O)NCCCl)[C@H](O)[C@H](C)O2)O1)C(=O)c1ccccc1C3=O [BCH-2110] ?
Response: 1.14

Request: Name the reported VLB/OV3 value associated with the compound CC(=O)C1Cc2c(O)c3c(c(O)c2C(O[C@H]2C[C@H](NC(=O)C(F)(F)F)[C@H](O)[C@H](C)O2)O1)C(=O)c1ccccc1C3=O (mixture of isomers) [BCH-1131]
Response: 2.45

Request: Which VLB/OV3 is reported for this compound? COP(=O)(CC(=O)[C@@H]1CC2=C(C(=O)c3cc4ccccc4c(O)c3C2=O)[C@@H](O[C@H]2C[C@H](NC(=O)C(F)(F)F)[C@H](O)[C@H](C)O2)O1)OC [BCH-1678]
Response: 2.54

Request: So what's the measured VLB/OV3 for this one? C[C@@H]1O[C@@H](O[C@@H]2O[C@@H](COc3ccccc3)Cc3c(O)c4c(c(O)c32)C(=O)c2ccccc2C4=O)C[C@H](N)[C@@H]1O (mixture of isomers) [BCH-2059]
Response: 1.24

====

Target or system Renal: recorded GI50 listed per item.
Use µM as the unit, but write only the number.

For orientation, consider the following solved cases.
COC(=O)[C@H]1CC2=C(C(=O)c3c(c(OC)c4ccccc4c3O)C2=O)[C@H](O[C@H]2C[C@H](NC(=O)C(F)(F)F)[C@H](O)[C@H](C)O2)O1 (mixture of isomers) [BCH-675]    9.12
CCOC(=O)C1CC2=C(CO1)C(=O)c1c(cc3ccccc3c1O)C2=O (stereo not shown) [BCH-651]    10
COC(=O)[C@@H]1CC2=C(C(=O)c3c(c(OC)c4ccccc4c3O)C2=O)[C@@H](O[C@H]2C[C@H](NC(=O)C(F)(F)F)[C@H](O)[C@H](C)O2)O1 (mixture of isomers) [BCH-674]    8.91
COC(=O)C1CC2=C(C(=O)c3c(cc4ccccc4c3O)C2=O)C(O[C@H]2C[C@H](NC(=O)C(F)(F)F)[C@H](O)[C@H](C)O2)O1 (mixture of isomers) [BCH-242]    0.955
COc1cccc2c1C(=O)c1c(O)c3c(c(O)c1C2=O)C[C@@](O)(C(C)=O)C[C@@H]3O[C@H]1C[C@H](N)[C@H](O)[C@H](C)O1 [DNM, reference compound]    0.162

Request: Write down the reported GI50 of CCOC(=O)[C@@H]1CC2=C(C(=O)c3c(c(O)c4ccccc4c3OC(C)=O)C2=O)[C@@H](O)O1 (mixture of isomers) [BCH-658] , test system: Renal.
Response: 46.8

Request: Give Renal GI50 for CCOC(=O)[C@@H]1CC2=C(C(=O)c3cc4ccccc4c(O)c3C2=O)[C@@H](O[C@H]2C[C@H](NC(=O)C(F)(F)F)[C@H](O)[C@H](C)O2)O1 [BCH-681]
Response: 3.02

Request: GI50 of CCOC(=O)C1Cc2c(O)c3c(c(O)c2CO1)C(=O)c1ccccc1C3=O (stereo not shown) [BCH-650] on Renal?
Response: 52.5

Request: API: value(readout=GI50, system=Renal) for record CCOC(=O)[C@@H]1CC2=C(C(=O)c3cc4ccccc4c(OC(C)=O)c3C2=O)[C@@H](O)O1 (mixture of isomers) [BCH-660]
Response: 0.912

Request: Hello, I am looking for reported GI50 with Renal for CCOC(=O)C1CC2=C(C(=O)c3c(c(O)c4ccccc4c3OC)C2=O)C(O[C@H]2C[C@H](NC(=O)C(F)(F)F)[C@H](O)[C@H](C)O2)O1 (mixture of isomers) [BCH-689] . Could you help?
Response: 11.2

Request: Record CCOC(=O)[C@@H]1CC2=C(C(=O)c3c(cc4ccccc4c3OC(C)=O)C2=O)[C@@H](O)O1 (relative stereo) [BCH-657] : what is its GI50 with Renal?
Response: 1.32

Request: Identify the measured GI50 of CCOC(=O)C1CC2=C(CO1)C(=O)c1cc3ccccc3c(O)c1C2=O (stereo not shown) [BCH-653] for Renal.
Response: 57.5
